Tested on: CAOV3
measurement_notes: Primary qHTS to identify gynecologic anti-cancer compounds using libraries of approved drugs and bioactive compounds (AID 1345084); also: nearly all actives have a fitted effect of over 55% in size
applied_conditions: Gynecologic cancer cell panel viability, ATPlite luminescence, 48 h; series mostly up to 57.5 µM
Records with an inconclusive call do not appear. Active and inactive are the calls of the source. Calls follow the shape of the dose curve; as a rule, active = well fitted cell-killing curve with a large enough effect; inconclusive = small, poorly fitted or top-dose-only effect, or effect the other way; inactive = flat fitted curve, though single readings scatter.
Classes used: active, inactive

molecule=O=C(O)/C=C/c1cc2c(cc1O[C@@H]1O[C@H](CO)[C@@H](O)[C@H](O)[C@H]1O)OCO2 assigned_label=inactive
molecule="C=CC1(C)CC(OC(=O)/C(C)=C\\COC(C)=O)C(C(=C)C(=O)O)C(O)C1C(=C)CO (centres undefined)" assigned_label=inactive
molecule="C=C1[C@@H]2CC[C@@H]3[C@@](CCC4C(C(=O)O)(C(=O)O)C[C@@H](O[C@@H]5O[C@H](CO)[C@@H](O)[C@H](O)[C@H]5OC(=O)CC(C)C)C[C@]43C)(C2)[C@H]1O (some centres undefined)" assigned_label=inactive
molecule=C=C1C(=O)O[C@@H]2/C=C(\C)C(=O)/C=C/[C@](C)(O)C[C@@H](OC(=O)C(C)C)[C@@H]12 assigned_label=active

###

Tested on: Zika virus NS2B-NS3 protease (unlinked complex)
measurement_notes: Primary screen GU Rhodamine qHTS for Zika virus inhibitors: Unlinked NS2B-NS3 protease assay (AID 1347159); also: nearly all actives have a fitted effect of over 60% in size; also: potency is read from the fitted curve at half-maximal effect
applied_conditions: Recombinant ZIKV NS2B-NS3 protease, Rhodamine110 substrate fluorescence; series mostly up to 107 µM
Results filed as inconclusive are left out. Active and inactive are the calls of the source. Calls come from the whole dose curve; as a rule, active = well fitted inhibition curve with a large enough effect; inconclusive = small, poorly fitted or top-dose-only effect; inactive = no such curve, though single readings can be large or run the other way.
metric: Potency

molecule=CC(C)c1cc(C(=O)N2CC[C@@H](NC(=O)C3CC3)C2)n[nH]1 endpoint_result=inactive
molecule=CN1CCC(Nc2nc(Nc3ccc(Oc4ccccc4)cc3)c3c(=O)[nH]cc(Br)c3n2)CC1 endpoint_result=inactive
molecule="CN(C)c1ccc2c(c1)OC(N)=C(C#N)C2c1cccc(C(F)(F)F)c1 (stereo not given)" endpoint_result=inactive
molecule=O=C(O)c1ccccc1NC(=O)N1CCC(c2ccccc2C(F)(F)F)CC1 endpoint_result="22.4 µM (active)"
molecule=O=C1OCC(c2ccccc2)=C1Cc1ccccc1 endpoint_result=inactive
molecule="CC1(C)CC2C(O)c3cocc3CC(C)(O)C2C1 (stereo not given)" endpoint_result=inactive
molecule=CC[C@@H](O)C[C@@H]1C(C)=C[C@@H]2CCCC[C@@H]2[C@@]1(C)C(=O)O endpoint_result=inactive
molecule="COC(=O)CC(C)(O)CC(=O)OCc1ccc(O[C@@H]2O[C@H](CO)[C@@H](O)[C@H](O)[C@H]2O)cc1 (stereo not given in full)" endpoint_result=inactive
molecule="CC(NC(=O)CCc1nc2ccccc2c(=O)[nH]1)c1ccccc1 (stereo not given)" endpoint_result=inactive
molecule="CC1(C)CC[C@]2(C(=O)O[C@@H]3O[C@H](CO)[C@@H](O)[C@H](O)[C@H]3O)CC[C@]3(C)C(=CCC4[C@@]5(C)C[C@@H](O)[C@H](O)[C@@](C)(CO)C5CC[C@]43C)C2[C@@H]1O (stereo not given in full)" endpoint_result="10 µM (active)"

###

Tested on: Tov112D
measurement_notes: Primary qHTS to identify gynecologic anti-cancer compounds using libraries of approved drugs and bioactive compounds (AID 1345084); also: nearly all actives have a fitted effect of over 55% in size; as to activity change, negative = cytotoxicity: % is scaled to controls: 0 for no effect and ±100 for the full control effect
applied_conditions: Gynecologic cancer cell panel viability, ATPlite luminescence, 48 h; series mostly up to 57.5 µM
Inconclusive results are not listed. Calls of active or inactive are those of the source. The call rests on the fitted dose curve; in most records, active means well fitted cell-killing curve with a large enough effect; inconclusive means small, poorly fitted or top-dose-only effect, or effect the other way; inactive means flat fitted curve, though single readings scatter.
Reported activity change, negative = cytotoxicity values for the following molecules.
metric: activity change, negative = cytotoxicity

molecule="C[C@@H]1O[C@@H](O[C@H]2[C@H](O[C@H]3[C@H](O[C@H]4CC[C@@]5(C)C(CC[C@]6(C)C5CC=C5[C@@H]7CC(C)(C)C[C@@H](O)[C@]7(C)CC[C@]56C)[C@@]4(C)CO)O[C@H](C(=O)O)[C@@H](O)[C@@H]3O)OC[C@H](O)[C@@H]2O)[C@H](O)[C@H](O)[C@H]1O (some centres undefined)" assay_system=Tov112D endpoint_result="-12.3% [at 11.6 µM] (inactive)"
molecule="C=CC(C)(O)CC/C=C(\\C)C(=O)OC1C(O)C(CO)OC(OC(=O)C23CCC(C)(C)CC2C2=CCC4C5(C)CCC(OC6OC(COC7OCC(OC(C)=O)C(O)C7OC7OC(COC(C)=O)C(O)C(O)C7O)C(O)C(O)C6O)C(C)(C)C5CCC4(C)C2(C)C(O)C3O)C1OC1OCC(OC2OCC(O)C(OC3OCC(O)C(O)C3O)C2O)C(O)C1O (centres undefined)" assay_system=Tov112D endpoint_result="-2.19% [at 6.55 µM] (inactive)"
molecule="CC1(C)CCC2(C(=O)OC3OCC(O)C(O)C3O)CCC3(C)C(=CCC4C5(C)CC(O)C(OC6OC(COC7OCC(O)C(O)C7O)C(O)C(O)C6O)C(C)(C)C5CCC43C)C2C1 (centres undefined)" assay_system=Tov112D endpoint_result="7.12% [at 11.6 µM] (inactive)"
molecule="CC1OC(OC2C(CO)OC(OCC3OC(OC(=O)C45CCC(C)(C)CC4C4=CCC6C7(C)CCC(OC8OC(CO)C(O)C(OC9OC(CO)C(O)C(O)C9O)C8O)C(C)(C)C7CCC6(C)C4(C)CC5)C(O)C(O)C3O)C(O)C2O)C(O)C(O)C1OC1OC(CO)C(O)C(O)C1O (centres undefined)" assay_system=Tov112D endpoint_result="-6.51% [at 6.55 µM] (inactive)"

###

Tested on: HEK293
measurement_notes: Cytotoxic Profiling of Annotated Libraries Using Quantitative High-Throughput Screening (AID 1296008); also: nearly all actives have a fitted effect of over 60% in size; also: potency is read from the fitted curve at half-maximal effect
applied_conditions: Five cell lines viability, CellTiter-Glo ATP luminescence, 48-72 h
Results filed as inconclusive are left out. Activity calls are given as the source filed them. Calls follow the shape of the dose curve; as a rule, active = well fitted inhibition curve with a large enough effect; inconclusive = small, poorly fitted or top-dose-only effect; inactive = flat fitted curve, though single readings scatter.
metric: Potency

molecule=Cc1cc(OCc2nnc(SC3CCCC3)n2-c2cccnc2)ccc1-c1ccc(S(C)(=O)=O)cc1 assay_system=HEK293 endpoint_result="0.291 µM (active)"
molecule="CC1CC(O)C2(OC1=O)OC1C(O)C3C4CCC5CC(OC6OC(CO)C(O)C(O)C6OC6OC(C)C(O)C(O)C6O)CCC5(C)C4CCC3(C)C1C2C (centres undefined)" assay_system=HEK293 endpoint_result=inactive
molecule=Cc1cc(Nc2ccc(NC(=O)c3ccc(Nc4ccnc5ccccc45)cc3)cc2)nc(N)n1 assay_system=HEK293 endpoint_result="3.26 µM (active)"
molecule=Cc1ccccc1NC(=O)Nc1ccc(CC(=O)N(C)[C@@H](CC(C)C)C(=O)NCC[C@H](NC(=O)[C@@H]2CCCN2S(=O)(=O)c2cc(Cl)cc(Cl)c2)C(=O)O)cc1 assay_system=HEK293 endpoint_result=inactive

###

Reported activity change, negative = cytotoxicity values for the following molecules.
Tested on: Hek293T
measurement_notes: Primary qHTS to identify gynecologic anti-cancer compounds using libraries of approved drugs and bioactive compounds (AID 1345084); also: nearly all actives have a fitted effect of over 55% in size; as to activity change, negative = cytotoxicity: % is scaled to controls: 0 for no effect and ±100 for the full control effect
applied_conditions: Gynecologic cancer cell panel viability, ATPlite luminescence, 48 h, control line for the selectivity index; series mostly up to 57.5 µM
Text: National Center for Advancing Translational Sciences [NCATS] Assay Overview: Chemotherapeutic drug responses vary from cancer to cancer and from patient to patient. […] ATPlite is a luminescence based assay reliant on the conversion of a luciferase substrate to light in the presence of ATP. As a cytotoxic compound will suppress growth and decrease the number of cells, the concentration of ATP will decrease, and less light signal will be detected in the well. […]
Inconclusive results are not listed. Activity calls are given as the source filed them. Calls come from the whole dose curve; as a rule, active = well fitted cell-killing curve with a large enough effect; inconclusive = small, poorly fitted or top-dose-only effect, or effect the other way; inactive = flat fitted curve, though single readings scatter.
metric: activity change, negative = cytotoxicity

molecule="CC1(C)CC[C@]2(C(=O)O[C@@H]3O[C@H](CO[C@@H]4O[C@H](CO)[C@@H](O)[C@H](O)[C@H]4O[C@@H]4O[C@H](CO)[C@H](O)[C@H](O)[C@H]4O)[C@@H](O)[C@H](O[C@@H]4O[C@H](CO)[C@@H](O)[C@H](O)[C@H]4O)[C@H]3O)CC[C@]3(C)C(=CCC4[C@@]5(C)CC[C@H](O[C@@H]6OC[C@@H](O)[C@H](O)[C@H]6O)[C@@](C)(C(=O)O)C5CC[C@]43C)[C@@H]2C1 (stereo partly drawn)" metric="activity change, negative = cytotoxicity" endpoint_result="8.22% [at 6.55 µM] (inactive)"
molecule="C[C@@H]1O[C@@H](O[C@H]2[C@H](O)[C@@H](O)[C@H](OC[C@H]3O[C@@H](OC(=O)[C@]45CCC(C)(C)C[C@H]4C4=CCC6[C@@]7(C)CC[C@H](O[C@@H]8OC[C@H](O)[C@H](O[C@@H]9O[C@H](CO)[C@@H](O)[C@H](O)[C@H]9O)[C@H]8O)[C@@](C)(CO)C7CC[C@@]6(C)[C@]4(C)CC5)[C@H](O)[C@@H](O)[C@@H]3O)O[C@@H]2CO)[C@H](O)[C@H](O)[C@H]1O (stereo partly drawn)" metric="activity change, negative = cytotoxicity" endpoint_result="-5.57% [at 6.55 µM] (inactive)"
molecule=O=C(O)C1CN(Cc2ccc(-c3nc4cc(Cc5ccccc5F)ccc4s3)c(F)c2)C1 metric="activity change, negative = cytotoxicity" endpoint_result="9.39% [at 11.6 µM] (inactive)"
molecule="CC(=O)O[C@@H]1[C@H](O[C@@H]2O[C@@H](CO)[C@H](O)[C@H]2O)[C@@H](O[C@@H]2O[C@@H](C)[C@H](O[C@@H]3OC[C@@H](O)[C@H](O)[C@H]3O)[C@@H](O)[C@H]2O)[C@H](OC(=O)[C@]23CCC(C)(C)C[C@H]2C2=CCC4[C@@]5(C)CC[C@H](O[C@@H]6O[C@H](C(=O)O)[C@@H](O)[C@H](O)[C@H]6O[C@@H]6O[C@H](CO)[C@H](O)[C@H](O)[C@H]6O)[C@@](C)(C=O)C5CC[C@@]4(C)[C@]2(C)CC3)O[C@@H]1C (stereo partly drawn)" metric="activity change, negative = cytotoxicity" endpoint_result="2.65% [at 6.55 µM] (inactive)"
molecule="CC1(C)CC[C@]2(CO[C@@H]3O[C@H](CO)[C@@H](O)[C@H](O)[C@H]3O)[C@@H](O)C[C@]3(C)C(=CCC4[C@@]5(C)CC[C@H](O[C@@H]6O[C@H](CO[C@@H]7O[C@H](CO[C@@H]8OC[C@@H](O)[C@H](O)[C@H]8O)[C@@H](O)[C@H](O)[C@H]7O)[C@@H](O)[C@H](O)[C@H]6O)C(C)(C)C5CC[C@]43C)[C@@H]2C1 (stereo partly drawn)" metric="activity change, negative = cytotoxicity" endpoint_result="1.89% [at 11.6 µM] (inactive)"
molecule="CN=C(N)NCCCCC/C=C(/C)CC(C)C1OC(=O)C(C)C(O)/C=C/C(C)C(O)CC(O)C(C)C(O)CCC(C)C(O)CC2(O)OC(CC(OC(=O)CC(=O)O)CC(O)CC(O)C(C)C(O)/C(C)=C/CCC1C)CC(O)C2O (stereo not drawn)" metric="activity change, negative = cytotoxicity" endpoint_result="10.1% [at 11.6 µM] (inactive)"
molecule="COC1CC(OC2CCC3(C)C(=CCC4C3C(OC(C)=O)C(OC(=O)/C=C/c3ccccc3)C3(C)C(C(C)O)CCC43O)C2)OC(C)C1OC1CC(OC)C(OC2OC(C)C(OC3OC(CO)C(O)C(O)C3O)C(OC)C2O)C(C)O1 (stereo not drawn)" metric="activity change, negative = cytotoxicity" endpoint_result="-0.285% [at 6.55 µM] (inactive)"
molecule="CC(C)=CCC[C@](C)(O[C@@H]1O[C@H](CO)[C@@H](O)[C@H](O)[C@H]1O)[C@H]1CC[C@]2(C)[C@@H]1[C@H](O)CC1[C@@]3(C)CC[C@H](O)C(C)(C)C3[C@@H](O[C@@H]3O[C@H](CO)[C@@H](O)[C@H](O)[C@H]3O[C@@H]3OC[C@@H](O)[C@H](O)[C@H]3O)C[C@]12C (stereo partly drawn)" metric="activity change, negative = cytotoxicity" endpoint_result="-2.61% [at 11.6 µM] (inactive)"
molecule="C[C@@H]1O[C@@H](O[C@H]2[C@H](OC(=O)[C@]34CCC(C)(C)C[C@H]3C3=CCC5[C@@]6(C)C[C@H](O)[C@H](O[C@@H]7O[C@H](CO)[C@@H](O)[C@H](O)[C@H]7O)[C@@](C)(CO)C6[C@H](O)C[C@@]5(C)[C@]3(C)C[C@H]4O)OC[C@H](O)[C@@H]2O)[C@H](O)[C@H](O)[C@H]1O[C@@H]1OC[C@@H](O)[C@H](O[C@H]2OC[C@](O)(CO)[C@H]2O)[C@H]1O (stereo partly drawn)" metric="activity change, negative = cytotoxicity" endpoint_result="-3.35% [at 6.55 µM] (inactive)"
molecule="CC1(C)CC[C@@]2(C(=O)O[C@@H]3O[C@H](CO)[C@@H](O)[C@H](O)[C@H]3O)C(C1)C1=CCC3[C@@]4(C)CC[C@@H](O[C@@H]5O[C@H](C(=O)O)[C@@H](O[C@@H]6OC[C@@H](O)[C@H](O)[C@H]6O)[C@H](O[C@@H]6OC[C@](O)(CO)[C@H]6O)[C@H]5O)C(C)(C)C4CC[C@@]3(C)[C@]1(C)C[C@H]2O (stereo partly drawn)" metric="activity change, negative = cytotoxicity" endpoint_result="3.52% [at 11.6 µM] (inactive)"
molecule="C=CC(C)(O)CC/C=C(\\C)C(=O)OC1C(O)C(CO)OC(OC(=O)C23CCC(C)(C)CC2C2=CCC4C5(C)CCC(OC6OC(COC7OCC(OC(C)=O)C(O)C7OC7OC(COC(C)=O)C(O)C(O)C7O)C(O)C(O)C6O)C(C)(C)C5CCC4(C)C2(C)C(O)C3O)C1OC1OCC(OC2OCC(O)C(OC3OCC(O)C(O)C3O)C2O)C(O)C1O (stereo not drawn)" metric="activity change, negative = cytotoxicity" endpoint_result="1.48% [at 6.55 µM] (inactive)"
molecule="CC1OC(OC2C(C)OC(OC3C(OC(=O)C45CCC(C)(C)CC4C4=CCC6C7(C)CCC(OC8OC(C(=O)O)C(O)C(O)C8OC8OC(CO)C(O)C(OC9OC(C)C(O)C(O)C9O)C8O)C(C)(CO)C7CCC6(C)C4(C)CC5)OC(CO)C(O)C3O)C(O)C2O)C(O)C(O)C1O (stereo not drawn)" metric="activity change, negative = cytotoxicity" endpoint_result="-2.51% [at 6.55 µM] (inactive)"
molecule="CC1OC(O[C@H]2CC[C@@]3(C)C(CC[C@]4(C)C3CC=C3C5CC(C)(C)CC[C@]5(C(=O)OC5OC(CO)C(OC6OC(COC7OCC(O)C(O)C7O)C(O)C(O)C6O)C(O)C5O)CC[C@]34C)C2(C)C)C(O)C(O)C1OC1OCC(OC2OCC(O)C(O)C2O)C(O)C1O (stereo partly drawn)" metric="activity change, negative = cytotoxicity" endpoint_result="2.21% [at 6.55 µM] (inactive)"
